Molecular target: T1, BMPRIb receptor-Fc fusion (UniProt O00238 14-126)
T1 construct: BMP receptor-Fc fusion used at 5 ug/mL; also called ALK-6
T1 sequence (looked up): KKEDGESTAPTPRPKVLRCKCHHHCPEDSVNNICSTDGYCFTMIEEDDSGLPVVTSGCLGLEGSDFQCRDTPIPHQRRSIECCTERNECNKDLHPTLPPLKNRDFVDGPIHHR
Test: ELISA-like plate assay, captured BMP-7 from conditioned media, receptor-Fc detection
Quick list: BMPRIb binding (relative to wild type = 1.0) per entry.

Check out these entries, answers already filled in.
BMP-7 variant F73K (ligand, In conditioned media; numbering on mature BMP-7) STGGKQRSQNRSKTPKNQEALRMASVAENSSSDQRQACKKHELYVSFRDLGWQDWIIAPEGYAAYYCEGECAKPLNSYMNATNHAIVQTLVHFINPETVPKPCCAPTQLNAISVLYFDDSSNVILKKYRNMVVRACGCH    1.14 relative to wild type
BMP-7 variant W52A (ligand, In conditioned media; numbering on mature BMP-7) STGGKQRSQNRSKTPKNQEALRMASVAENSSSDQRQACKKHELYVSFRDLGAQDWIIAPEGYAAYYCEGECAFPLNSYMNATNHAIVQTLVHFINPETVPKPCCAPTQLNAISVLYFDDSSNVILKKYRNMVVRACGCH    0.33 relative to wild type
BMP-7 variant K126E (ligand, In conditioned media; numbering on mature BMP-7) STGGKQRSQNRSKTPKNQEALRMASVAENSSSDQRQACKKHELYVSFRDLGWQDWIIAPEGYAAYYCEGECAFPLNSYMNATNHAIVQTLVHFINPETVPKPCCAPTQLNAISVLYFDDSSNVILEKYRNMVVRACGCH    0.22 relative to wild type

Exercise: // lookup BMPRIb binding (relative to wild type = 1.0) for BMP-7 variant R129N (ligand, In conditioned media; numbering on mature BMP-7) STGGKQRSQNRSKTPKNQEALRMASVAENSSSDQRQACKKHELYVSFRDLGWQDWIIAPEGYAAYYCEGECAFPLNSYMNATNHAIVQTLVHFINPETVPKPCCAPTQLNAISVLYFDDSSNVILKKYNNMVVRACGCH
Key: 1.03 relative to wild type

Exercise: // lookup BMPRIb binding (relative to wild type = 1.0) for BMP-7 variant F117K (ligand, In conditioned media; numbering on mature BMP-7) STGGKQRSQNRSKTPKNQEALRMASVAENSSSDQRQACKKHELYVSFRDLGWQDWIIAPEGYAAYYCEGECAFPLNSYMNATNHAIVQTLVHFINPETVPKPCCAPTQLNAISVLYKDDSSNVILKKYRNMVVRACGCH
Key: 0.62 relative to wild type

Exercise: // lookup BMPRIb binding (relative to wild type = 1.0) for BMP-7 variant M23S (ligand, In conditioned media; numbering on mature BMP-7) STGGKQRSQNRSKTPKNQEALRSASVAENSSSDQRQACKKHELYVSFRDLGWQDWIIAPEGYAAYYCEGECAFPLNSYMNATNHAIVQTLVHFINPETVPKPCCAPTQLNAISVLYFDDSSNVILKKYRNMVVRACGCH
Key: 1.09 relative to wild type

Exercise: // lookup BMPRIb binding (relative to wild type = 1.0) for BMP-7 variant K39S (ligand, In conditioned media; numbering on mature BMP-7) STGGKQRSQNRSKTPKNQEALRMASVAENSSSDQRQACSKHELYVSFRDLGWQDWIIAPEGYAAYYCEGECAFPLNSYMNATNHAIVQTLVHFINPETVPKPCCAPTQLNAISVLYFDDSSNVILKKYRNMVVRACGCH
Key: 2.23 relative to wild type
